- experimental-system: Mtb Lpd (Mycobacterium tuberculosis (strain ATCC 25618 / H37Rv))
- Format: biochemical
- measurement-parameters: read-out: LPD IC50
Field: pIC50. Provide a value for each of the compounds that follow.
Entry type: numeric. Quantity: pIC50, the -log10 of concentration in molar units.

// query Request: pIC50, test system Mtb Lpd (Mycobacterium tuberculosis (strain ATCC 25618 / H37Rv)), entry Cc1cc(S(=O)(=O)N(C)CC(=O)Nc2nc3ccccc3o2)c2n[nH]cc2c1
// result 7.00

// query Also check Cc1cc(S(=O)(=O)N(C)CC(=O)Nc2ccc3c(c2)OCCN3C)c2[nH]ncc2c1
// result 8.44

// query Also check COCc1n[nH]c2c(S(=O)(=O)N(C)CC(=O)Nc3ccc(OC)c(C)c3)cc(C)cc12
// result 2.44

// query Also check Cc1cc(S(=O)(=O)N(C)CC(=O)Nc2ccn3nccc3c2)c2[nH]ncc2c1
// result 7.69

// query Also check CN(CC(=O)Nc1ccn(C)c(=O)c1)S(=O)(=O)c1cc(C(F)F)cc2c(F)n[nH]c12
// result 6.64

// query Also check Cc1cc(S(=O)(=O)N(C)CC(=O)Nc2ccn3ccnc3c2)c2[nH]ncc2c1
// result 7.20

// query Also check CN(CC(=O)Nc1ccc2c(c1)OCCN2C1CCOCC1)S(=O)(=O)c1cc(C2(O)CC2)cc2cn[nH]c12
// result 6.26

// query Also check Cc1cc(S(=O)(=O)N2CC[C@@H](C(=O)Nc3ccc4c(c3)OCCN4C3CCOCC3)C2)c2n[nH]cc2c1
// result 7.52

* * *

- measurement-parameters: microsomes
measurement-name: Human Liver Microsome Stability (µL/min/mg)
Your answer should be a plain number; it is taken to be in µL/min/mg.

// query // returns reported Human Liver Microsome Stability for input CCCCNC(=O)CN(C)S(=O)(=O)c1cc(C)cc2cc(C#N)[nH]c12 [Example 223]
// result 62

// query Also check CN(CC(=O)Nc1ccn(C)c(=O)c1)S(=O)(=O)c1cc(Cl)cc2c(F)n[nH]c12 [Example 150]
// result 1

// query Also check Cc1cc(S(=O)(=O)N(C)CC(=O)Nc2ccn(C)c(=O)c2)c2[nH]ccc2c1 [Example 23]
// result 19

// query Also check CC#CCNC(=O)CN(C)S(=O)(=O)c1cc(C)cc2cc(C#N)[nH]c12 [Example 210]
// result 39

* * *

- experimental-system: Mtb Lpd (Mycobacterium tuberculosis (strain ATCC 25618 / H37Rv), UniProt P9WHH9)
- Format: biochemical
- measurement-parameters: 30 min preincubation; read-out: LPD IC50 (μM) w/ 30 min preincubation
measurement-name: IC50 (µM)
Your answer should be a plain number; it is taken to be in µM.

// query Request: IC50, test system Mtb Lpd (Mycobacterium tuberculosis (strain ATCC 25618 / H37Rv), UniProt P9WHH9), entry COc1ccc(NC(=O)CN(C)S(=O)(=O)c2cc(C)cc3cc(C#N)[nH]c23)cn1 [Example 216]
// result 0.02

// query Also check Cc1cc(S(=O)(=O)N2CCC2C(=O)Nc2ccc(OCCN(C)C)c(C)c2)c2[nH]c(C#N)cc2c1 (stereo not shown) [Example 207]
// result 0.06

// query Also check Cc1cc(S(=O)(=O)N2CC[C@H]2C(=O)Nc2ccc(OCCN(C)C)c(Cl)c2)c2[nH]ncc2c1 [Example 199]
// result 0.045

// query Also check CCc1ccc(NC(=O)CN(C)S(=O)(=O)c2cc(C)cc3cc(C#N)[nH]c23)cc1Cl [Example 212]
// result 0.035

* * *

- experimental-system: Mtb Lpd (Mycobacterium tuberculosis (strain ATCC 25618 / H37Rv))
- Assay type: biochemical
- measurement-parameters: read-out: LPD IC50
measurement-name: pIC50
Entry type: numeric. Quantity: pIC50, the -log10 of concentration in molar units.

// query // returns reported pIC50 for input Cc1cc(S(=O)(=O)N(C)CC(=O)N[C@@H]2CCc3ccccc32)c2n[nH]cc2c1
// result 7.37

// query Also check Cc1cc(S(=O)(=O)N(C)CC(=O)Nc2ccc3c(c2)OCCN3C(C)(C)CO)c2[nH]ncc2c1
// result 7.57

// query Also check CCN(CC(=O)Nc1ccc2c(c1)OCCN2C1CCOCC1)S(=O)(=O)c1cc(C)cc2c[nH]nc12
// result 7.56

// query Also check Cc1cc(S(=O)(=O)N(C)CC(=O)Nc2ccc(N3CCOCC3)c(Cl)c2)c2[nH]ncc2c1
// result 7.72

// query Also check Cc1cc(S(=O)(=O)N(C)CC(=O)Nc2ccn3c(C(F)(F)F)ncc3c2)c2n[nH]cc2c1
// result 7.46

// query Also check Cc1cc(S(=O)(=O)N(C)CC(=O)Nc2ccc3c(c2)OCCN3C2COC2)c2[nH]ncc2c1
// result 7.56

// query Also check Cc1cc(S(=O)(=O)N(C)CC(=O)Nc2ccc3c(c2)OCCN3C2CCOCC2)c2[nH]ncc2c1
// result 7.38

* * *

- measurement-parameters: microsomes
For each record, check the reported Human Liver Microsome Stability: if it is below 100 µL/min/mg write 1, else write -1.

// query Confirm or reject: Human Liver Microsome Stability of Cc1cc(S(=O)(=O)N(C)CC(=O)Nc2ccn3nccc3c2)c2[nH]ncc2c1 lies strictly below 100 µL/min/mg
// result -1

// query Also check COc1ccc(NC(=O)[C@@H]2CCN2S(=O)(=O)c2cc(C)cc3cn[nH]c23)cc1Cl
// result -1

// query Also check Cc1cc(S(=O)(=O)N2CC[C@H]2C(=O)Nc2ccc3cccnc3c2)c2[nH]ncc2c1
// result -1

// query Also check CN(CC(=O)Nc1ccn(C)c(=O)c1)S(=O)(=O)c1cc(C(F)F)cc2cn[nH]c12
// result 1

// query Also check Cc1cc(S(=O)(=O)N(C)CC(=O)Nc2ccc3c(c2)OCCN3C2CCOCC2)c2[nH]c(C#N)cc2c1
// result -1

// query Also check Cc1cc(S(=O)(=O)N(C)CC(=O)Nc2ccc3c(c2)OC(C)(C)C(=O)N3C)c2n[nH]cc2c1
// result 1

// query Also check Cc1cc(NC(=O)CN(C)S(=O)(=O)c2c(C)c(C)cc3cn[nH]c23)ccc1N1CCOCC1
// result -1

// query Also check Cc1cc(S(=O)(=O)N(C)CC(=O)Nc2ccc3c(c2)OCCO3)c2[nH]ncc2c1
// result 1

// query Also check Cc1cc(S(=O)(=O)N2CC[C@H]2C(=O)Nc2ccc3c(c2)OCCN3C(C)(C)CO)c2[nH]ncc2c1
// result -1

// query Also check Cc1cc(S(=O)(=O)N2CC[C@@H](C(=O)Nc3ccc4c(c3)OCCN4C3CCOCC3)C2)c2n[nH]cc2c1
// result 1

// query Also check Cc1cc(S(=O)(=O)N(C)CC(=O)NCC#Cc2ccccc2)c2[nH]c(C#N)cc2c1
// result -1

// query Also check COCc1n[nH]c2c(S(=O)(=O)N(C)CC(=O)Nc3ccc(OC)c(C)c3)cc(C)cc12
// result -1

// query Also check O=C(Nc1ccc2c(c1)OCCN2C1CCOCC1)[C@@H]1CCN1S(=O)(=O)c1cc(Cl)cc2cn[nH]c12
// result -1

// query Also check Cc1cc(S(=O)(=O)N(C)CC(=O)Nc2ccn(C3CC3)c(=O)c2)c2[nH]ncc2c1
// result 1

// query Also check Cc1cc(S(=O)(=O)N(C)CC(=O)Nc2ccc(C3CCCCC3)c(C)c2)c2[nH]c(C)cc2c1
// result 1

// query Also check Cc1cc(S(=O)(=O)N(C)CC(=O)NC2COC2)c2n[nH]cc2c1
// result 1

// query Also check CC(C)(CO)N1CCOc2cc(NC(=O)[C@@H]3CCN3S(=O)(=O)c3cc(C(F)F)cc4cn[nH]c34)ccc21
// result -1

// query Also check Cc1cc(S(=O)(=O)N2CC[C@@H](C(=O)Nc3ccc4c(c3)OCCN4C3COC3)C2)c2[nH]ncc2c1
// result 1

// query Also check Cc1cc(S(=O)(=O)N(C)CC(=O)Nc2ccc3ccncc3c2)c2n[nH]cc2c1
// result 1

// query Also check Cc1cc(S(=O)(=O)N2CC[C@H]2C(=O)Nc2ccc(N3CCOCC3)c(Cl)c2)c2[nH]c(C#N)cc2c1
// result 1

// query Also check CCN(CC(=O)Nc1ccc(N2CCN(C)CC2)c(Cl)c1)S(=O)(=O)c1cc(C)cc2cn[nH]c12
// result -1

// query Also check Cc1cc(S(=O)(=O)N(C)CC(=O)Nc2ccc3c(c2)OCCN3C2CCOCC2)c2n[nH]c(F)c2c1
// result -1

// query Also check Cc1cc(S(=O)(=O)N(C)CC(=O)Nc2cccc(N3CCCCC3=O)c2)c2[nH]c(C#N)cc2c1
// result -1

// query Also check Cn1ccc(NC(=O)[C@@H]2CCN2S(=O)(=O)c2cc(Br)cc3c(F)n[nH]c23)cc1=O
// result 1

// query Also check Cc1cc(S(=O)(=O)N(C)CC(=O)Nc2ccc3c(c2)OCCN3C2COC2)c2n[nH]c(F)c2c1
// result 1

// query Also check O=C(Nc1ccc(N2CCOCC2)c(Cl)c1)[C@@H]1CCN1S(=O)(=O)c1cc(C(F)F)cc2cn[nH]c12
// result 1

// query Also check COc1ccc(NC(=O)CN(C)S(=O)(=O)c2cc(C)cc3cc(C#N)[nH]c23)cn1
// result 1

// query Also check Cc1cc(S(=O)(=O)N2CC[C@H]2C(=O)Nc2ccc3ncccc3c2)c2[nH]ncc2c1
// result -1

// query Also check Cc1cc(S(=O)(=O)N(C)CC(=O)Nc2ccc(C3CCN(C)CC3)c(Cl)c2)c2[nH]ncc2c1
// result 1

// query Also check O=C(Nc1ccc2c(c1)OCCN2C1COC1)[C@@H]1CCN1S(=O)(=O)c1cc(C(F)F)cc2cn[nH]c12
// result 1
